Data provenance: ChEMBL document CHEMBL1201862

- Tested on: SK-OV-3
- method: NCI tumour cell line growth inhibition, 48 h
Calls of active or inactive are those of the source. Cut-off read from the data, not from the text of the source: active = GI50 up to about 1.1 µM and inactive = higher.
Write down the outcome that applies. Available outcomes: active, inactive

In: Recorded test outcome, item Cn1c(=O)oc2cc(C(O)CN3CCN(Cc4ccccn4)CC3)c(Cl)cc21 (stereo not given)
Out: inactive

In: Recorded test outcome, item COc1cc2c(cc1OCCCOc1cc3c(cc1OC)C(=O)N1CCC[C@H]1CN3)N=C[C@@H]1CCCN1C2=O
Out: active

In: Recorded test outcome, item O=S(=O)(c1ccccc1)n1c(C(O)c2ccncc2)cc2ccccc21 (stereo not given)
Out: inactive

In: Recorded test outcome, item O=C(Nc1nc2ncn(CCO)c2c(=S)[nH]1)c1ccccc1
Out: inactive

In: Recorded test outcome, item CC1=C(C(=O)NNC(=O)Cc2ccccc2)CC(C(=O)NNC(=O)Cc2ccccc2)=C(C)N1
Out: inactive

In: Recorded test outcome, item CCCCCCCCCCCCCCCCCCOC(COP(=O)(O)OCC1OC(n2cc(F)c(=O)[nH]c2=O)CC1O)COP(=O)(O)OCC1OC(n2ccc(N)nc2=O)C(O)C1O (stereo not given)
Out: inactive

In: Recorded test outcome, item C#Cc1ccccc1N1C(=O)C=CC1=O
Out: inactive

In: Recorded test outcome, item CCCCCCOc1ccc(C(=O)NO)cc1
Out: inactive

In: Recorded test outcome, item O=C(/C=C1/Nc2ccc([N+](=O)[O-])cc2N/C1=C/C(=O)c1ccccc1)c1ccccc1
Out: inactive

In: Recorded test outcome, item C/C(=N\NC(N)=S)c1ccc(C)cc1C
Out: inactive

* * *

- Tested on: SK-MEL-5
- method: NCI tumour cell line growth inhibition, 48 h
The source made the active and inactive calls. No stated cut-off is given here; in the data, active = GI50 up to about 1.1 µM and inactive = higher.
quantity_measured: GI50

[[record]]
compound = "C=C(C)C(O)CCC1(C)C=Cc2c(c(C)cc3c2[nH]c2ccccc23)O1 (configuration not stated)"
tested_target = "SK-MEL-5"
measurement = "7.62 µM (inactive)"

[[record]]
compound = "Cc1cccc(/C=N/NC(=S)NCc2ccccn2)n1"
tested_target = "SK-MEL-5"
measurement = "17.7 µM (inactive)"

[[record]]
compound = "O=C(NC(=S)Nc1ccccc1)c1ccc([N+](=O)[O-])cc1"
tested_target = "SK-MEL-5"
measurement = "36 µM (inactive)"

[[record]]
compound = "O=C(O)c1cc2c(cc1S(=O)(=O)O)C1C(C3C2C2(Cl)C(Cl)=C(Cl)C3(Cl)C2(Cl)Cl)C2(Cl)C(Cl)=C(Cl)C1(Cl)C2(Cl)Cl (configuration not stated)"
tested_target = "SK-MEL-5"
measurement = "34.7 µM (inactive)"

[[record]]
compound = "CCCC1=C(OC)C(=O)c2c(C)cc(Cl)nc2C1=O"
tested_target = "SK-MEL-5"
measurement = "4.06 µM (inactive)"


In: Data request, read-out GI50, for C=C(C(N)=O)c1ccc([N+](=O)[O-])o1
Out: 5.74 µM (inactive)

In: Data request, read-out GI50, for O=C(NCP(=O)(Oc1ccccc1)Oc1ccccc1)OCc1ccccc1
Out: > 100 µM (inactive)

In: Data request, read-out GI50, for CCOC(=O)C1N(S(=O)(=O)c2ccc(C)cc2)CCC12c1ccccc1NC2c1ccc(OC)c(OC)c1 (configuration not stated)
Out: > 100 µM (inactive)

In: Data request, read-out GI50, for COc1ccc2c(c1)Cc1c-2[nH]c2cc3c(cc2c1=O)OCO3
Out: 6.21 µM (inactive)

In: Data request, read-out GI50, for CC(C)(N)CO[C@H]1C[C@H]2CC[C@@]1(C)C2(C)C
Out: 18.2 µM (inactive)

* * *

- Test system: KM12
- method: NCI tumour cell line growth inhibition, 48 h
The source made the active and inactive calls. Rule as the data show it: active = GI50 up to about 1.1 µM and inactive = higher.
quantity_measured: GI50

Solved cases (5 shown):
[[record]]
molecule = "O=S(O)CCCCCSSSCCCCCS(=O)O"
measurement = "> 100 µM (inactive)"

[[record]]
molecule = "Cc1nnc2sc(-c3ccc(-c4ccccc4Cl)o3)nn12"
measurement = "35.2 µM (inactive)"

[[record]]
molecule = "O=C1CCC2=C(CCC2)N1CCc1ccc2c(c1)OCO2"
measurement = "62.4 µM (inactive)"

[[record]]
molecule = "CCCCCCCCCCCC(=O)CC(=O)c1c(O)cccc1O"
measurement = "17.5 µM (inactive)"

[[record]]
molecule = "Cc1ccc2c(c1)C(=O)N1CCC[C@H]1C=N2"
measurement = "15.5 µM (inactive)"


In: Data request, read-out GI50, for COc1ccc(N2C(=O)C3c4[nH]c5ccc(C)cc5c4C4CCC(C(C)C)CC4C3C2=O)cc1 (stereo unspecified)
Out: > 100 µM (inactive)

In: Data request, read-out GI50, for c1csc(-c2csc(-c3cccs3)c2)c1
Out: 28.9 µM (inactive)

In: Data request, read-out GI50, for COc1cc(O)c2c(c1C)C(C)(O)c1c(C)coc1C2=O (stereo unspecified)
Out: > 100 µM (inactive)

In: Data request, read-out GI50, for C=C1C(=O)O[C@@H]2[C@H](O)[C@@H](C)[C@@H]3C=CC(=O)[C@@]3(C)[C@H](OC(=O)C=C(C)C)[C@H]12
Out: 1.91 µM (inactive)

In: Data request, read-out GI50, for CC(C)CC(NC(=O)C(C)(CI)Cc1ccccc1)C(=O)Nc1ccccc1 (stereo unspecified)
Out: > 100 µM (inactive)

In: Data request, read-out GI50, for CCOC(=O)C1(NC(=O)OC(C)(C)C)CCc2[nH]oc(=O)c2C1 (stereo unspecified)
Out: 9.95 µM (inactive)

* * *

Items are presented alongside their recorded GI50.
- Tested on: HL-60
- method: NCI tumour cell line growth inhibition, 48 h
The source made the active and inactive calls. No stated cut-off is given here; in the data, active = GI50 up to about 1.1 µM and inactive = higher.

Solved cases (2 shown):
[[record]]
molecule = "O=C(O)[C@H]1[C@@H](C2CCCCC2)O[C@@H](C2CCCCC2)O[C@H]1C(F)(F)F"
quantity_measured = "GI50"
measurement = "26.9 µM (inactive)"

[[record]]
molecule = "COC(=O)c1nn(-c2ccccc2)c(=O)cc1N=[N+]=[N-]"
quantity_measured = "GI50"
measurement = "> 100 µM (inactive)"


In: Data request, read-out GI50, for COC(=O)c1ccc(/N=N/N(C)COc2ccc(C#N)cc2)cc1
Out: 16.6 µM (inactive)

In: Data request, read-out GI50, for Cc1ccc(N2C(=O)C3c4[nH]c5ccccc5c4C4CCC(C(C)(C)C)CC4C3C2=O)cc1 (stereo not drawn)
Out: 7.62 µM (inactive)

In: Data request, read-out GI50, for CCCCCCCCCCCCCCCCCCNc1ccn(C2OC(COP(=O)(O)OCC3OC(n4cc(F)c(NCCCCCCCCCCCCCCCCCC)nc4=O)CC3O)C(O)C2O)c(=O)n1 (stereo not drawn)
Out: > 100 µM (inactive)

In: Data request, read-out GI50, for Cc1ccc(C(=O)N/N=C(\N=N\c2ccc(C(=O)O)cc2)c2ccc(N(CCC#N)CCC#N)cc2C)cc1
Out: 79.3 µM (inactive)

In: Data request, read-out GI50, for Cc1nc2cc(N)c(F)cc2[nH]1
Out: > 100 µM (inactive)

In: Data request, read-out GI50, for CCOC(=O)C1(NC(=O)OC(C)(C)C)CCc2[nH]oc(=O)c2C1 (stereo not drawn)
Out: > 100 µM (inactive)

In: Data request, read-out GI50, for CCCC(=O)Nc1ccc(O)c2c1C1CCCCCC21 (stereo not drawn)
Out: > 100 µM (inactive)

In: Data request, read-out GI50, for C=C1C(=O)O[C@@H]2[C@H](O)[C@@H](C)[C@@H]3C=CC(=O)[C@@]3(C)[C@H](OC(=O)C=C(C)C)[C@H]12
Out: 0.2 µM (active)

In: Data request, read-out GI50, for CSC1=C(C#N)C(=O)N(c2ccc(Cl)cc2)C(=O)C1C#N (stereo not drawn)
Out: > 100 µM (inactive)

In: Data request, read-out GI50, for OCCSCC/C(=N\N=C(/CCSCCO)c1ccccc1)c1ccccc1
Out: 88.5 µM (inactive)

In: Data request, read-out GI50, for CC/N=C(/C#N)NCC
Out: > 100 µM (inactive)

In: Data request, read-out GI50, for O=C(Nc1ccccc1)N(CCN(Cc1ccccc1)C(=O)Nc1ccccc1)CCN(Nc1ccccc1)C(=O)Nc1ccccc1
Out: > 100 µM (inactive)

In: Data request, read-out GI50, for COCOc1cc(OC)c(Br)cc1C/C(=N/O)C(=O)OC
Out: 52.7 µM (inactive)

In: Data request, read-out GI50, for CCCC(=O)C(CC)/C(CCC(=O)N(Cc1ccccc1)Cc1ccccc1)=N/NC(=O)C[N+](C)(C)C (stereo not drawn)
Out: > 100 µM (inactive)

In: Data request, read-out GI50, for Oc1c(C(Nc2cccc3cccnc23)c2ccccc2)ccc2cccnc12 (stereo not drawn)
Out: 2.2 µM (inactive)

In: Data request, read-out GI50, for COC(=O)c1c(O)ccc2c1c1c(n2Cc2ccccc2)C(=O)c2ccccc2C1=O
Out: 18.3 µM (inactive)
